- TARGET_OR_SYSTEM: T1, recombinant human heparanase (active, 8 and 50 kDa sub-units, from baculovirus-infected Hi5 cells) (human, UniProt Q9Y251 36-109; Q9Y251 158-543)
- T1 sequence (looked up) 1: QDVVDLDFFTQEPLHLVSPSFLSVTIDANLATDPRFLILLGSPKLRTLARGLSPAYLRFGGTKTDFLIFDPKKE
- T1 sequence (looked up) 2: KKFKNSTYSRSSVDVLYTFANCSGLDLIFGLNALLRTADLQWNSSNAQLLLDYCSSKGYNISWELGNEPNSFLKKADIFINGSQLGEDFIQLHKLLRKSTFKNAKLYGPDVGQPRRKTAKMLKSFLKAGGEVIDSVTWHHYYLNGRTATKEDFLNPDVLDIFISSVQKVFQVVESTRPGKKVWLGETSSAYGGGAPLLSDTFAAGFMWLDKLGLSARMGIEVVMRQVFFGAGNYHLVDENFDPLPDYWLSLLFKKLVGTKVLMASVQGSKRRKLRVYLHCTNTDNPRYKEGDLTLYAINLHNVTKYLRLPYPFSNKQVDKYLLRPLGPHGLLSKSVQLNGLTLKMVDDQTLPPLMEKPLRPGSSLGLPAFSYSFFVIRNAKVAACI
- ASSAY_SUMMARY: cell-based or functional assay
Inhibition of recombinant human heparanase %, Assay 1 reference
Quick note: give the figure in %, leave out the unit.

Check out these entries, answers already filled in.
Using the record for monoclonal antibody 10E9.1 (antibody, V domains shown, Fully human (XenoMouse) antibody; also called mAb 10E9.1; ATCC PTA-9489) VH: QVQLVQSGAEVKKPGASVKVSCKVSGYSLTELSIHWVRQAPGKGLEWMGGFDPEDGEIIFAQKFQGRVTLTEDISLDTAYMEVSSLRSEDTAVYYCATEGHDSGDYVGYYYYGLDVWGQGTTVTVSS VL: DIQMTQSPSSLSASVGDRVTITCRASQDIRNFLAWYQQKPGKLPKLLIYAASTLQSGVPSRFSGSGSGTDFTLTISSLQPEDVASYYCQSHNSVPFTFGPGTKVDIR , report its Inhibition of recombinant human heparanase %, Assay 1. 88

Using the record for monoclonal antibody 15A1.2 (antibody, V domains shown, Fully human (XenoMouse) antibody; also called ATCC PTA-9491) VH: QVQLVQSGAEVKKPGASVKVSCKVSGYTLTELSMHWVRQAPGKGLEWMGGFDPEDGETIFAQKFQGRVTMTEDTSTDTAYMELSSLRSEDTAVYYCATGLRFLEWFLWGWDVWGQGTTVTVSS VL: DIQMTQSPSSVSASVGDRVTITCRASQGISNWLAWYQQTPGKAPQLLIYGASSLQSGVPSRFSGSGSGTDFTLTISSLQPEDFATYYCQQADSFPPTFGQGTKVEIK , report its Inhibition of recombinant human heparanase %, Assay 1. 81

---
Using the record for monoclonal antibody 16G1.1 (antibody, V domains shown, Fully human (XenoMouse) antibody) VH: QVQLVESGGGVVQPGRSLRLSCAASGFTFSSYGMHWVRQAPGKGLEWVAVIWYDGSNKYYADSVKGRFTISRDNSKNTLNLQMNSLRAEDTAVYYCGRDPGTYHYYYHGMDVWGQGTTVTVSS VL: YIVMTQSPLSLPVTPGEPASISCRSSQSLLHSNGYNFLDWYLQKPGQSPQLLIYLGSNRASGVPDRFSGSGSGTDFTLKINRVEAEDVGVYYCMQALQTPITFGQGTRLEIK , report its Inhibition of recombinant human heparanase %, Assay 1. 44

The origin of these recorded values is patent US20100233154A1.
